All values here come from paper PMC11677527.

Experiment: Verification pharmacokinetic experiment in rats, SPC 60 g crude drug/kg by gavage, UFLC-MS/MS, DAS 2.0
Format: in vivo, rat
Settings: rat, plasma, oral; time 1.5 h; rats p.o. SPC 60 g crude drug/kg; doses of 1-4: 0.124, 0.22, 1.4, 2.62 mg/kg; 5 rats
Readout type: concentration at 1.5 h
Express the reported value numerically, then name its unit.

Smiles str | concentration at 1.5 h
COc1cc([C@H]2c3cc(O)c(OC)cc3C[C@@H](CO)[C@@H]2CO)ccc1O | 8.29 ng/mL
COc1cc(-c2coc3cc(O)ccc3c2=O)ccc1O | 5.11 ng/mL
COc1ccc(-c2coc3c(OC)c(O)ccc3c2=O)cc1 | 1.97 ng/mL

Identify measured concentration at 1.5 h associated with `O=c1c(-c2ccc(O)cc2)coc2cc(O[C@@H]3O[C@H](CO)[C@@H](O)[C@H](O)[C@H]3O)ccc12` 5.55 ng/mL
